- Target: PLK1 kinase domain (Homo sapiens, UniProt P53350)
- Construct: made in house; host or cells: baculovirus-infected T. ni insect cells
- Sequence (P53350 21-346): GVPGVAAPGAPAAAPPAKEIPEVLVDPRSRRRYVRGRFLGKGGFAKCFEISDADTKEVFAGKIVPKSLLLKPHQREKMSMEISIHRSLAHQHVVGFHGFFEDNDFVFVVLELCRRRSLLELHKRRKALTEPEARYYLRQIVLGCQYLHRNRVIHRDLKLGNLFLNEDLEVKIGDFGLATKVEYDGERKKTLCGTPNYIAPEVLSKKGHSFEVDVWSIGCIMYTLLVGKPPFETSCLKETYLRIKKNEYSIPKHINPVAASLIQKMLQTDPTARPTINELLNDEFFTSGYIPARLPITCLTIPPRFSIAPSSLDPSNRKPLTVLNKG
- Test protocol: Assay for inhibition of PLK1 (SPA, 33P-ATP, His-tagged PLK kinase domain)
- Type: biochemical
- Assay setup: 2 μM ATP, read-out: Ave pIC50 PLK Enzyme Inhibition (converted)
Where a name gives a salt, the structure may show the parent alone.
Reported IC50 is given for each of the following molecules.

Please review the following examples before continuing.
{"columns": ["Molecule", "Quantity kind", "Experimental value"],
 "data": [
  ["COc1cc(Nc2ncc([N+](=O)[O-])c(Nc3ccccc3C(C)=O)n2)cc(OC)c1OC [Example 35, hydrochloride]", "IC50", "< 100 nM"],
  ["COc1cc(Nc2ncc(C(C)=O)c(Nc3ccccc3C(=O)NC(C)(C)C)n2)cc(OC)c1OC", "IC50", "< 100 nM"],
  ["CC(=O)Nc1ccc(Nc2ncc(Br)c(Nc3ccccc3N3CCOCC3)n2)cc1 [Example 25, hydrochloride]", "IC50", "< 100 nM"],
  ["COc1cc(Nc2ncc([N+](=O)[O-])c(Nc3cccc4ccc(O)cc34)n2)cc(OC)c1OC [Example 37, hydrochloride]", "IC50", "< 100 nM"],
  ["COC(=O)c1ccc(C(=O)OC)c(Nc2nc(Nc3ccc(NC(C)=O)cc3)ncc2[N+](=O)[O-])c1 [Example 29, hydrochloride]", "IC50", "100 to 10000 nM"]
]}

Supply IC50 value. Item: COc1cc(Nc2ncc([N+](=O)[O-])c(Nc3cccc4[nH]ccc34)n2)cc(OC)c1OC [Example 15, hydrochloride]
< 100 nM

Supply IC50 value. Item: CC(=O)Nc1ccc(Nc2ncc([N+](=O)[O-])c(Nc3ccccc3C(=O)OCc3ccccc3)n2)cc1 [Example 30, hydrochloride]
100 to 10000 nM

* * *

Reported IC50 is given for each of the following compounds.
- System: PC3 prostate tumor cell line
- Test protocol: Methylene Blue Growth Inhibition Assay, PC3
- Format: cell-based
- Assay setup: Homo sapiens, PC-3, 72 h; PC3 cells, 3 days; read-out: MeB Cell Line IC50
Counter-ions that a name gives are not always drawn.

Please review the following examples before continuing.
{"columns": ["Compound", "IC50"],
 "data": [
  ["COc1cc(Nc2ncc([N+](=O)[O-])c(Nc3ccccc3C(=O)NC3CCCCC3)n2)cc(OC)c1OC [Example 34, hydrochloride]", "> 10 µM"],
  ["COc1cc(Nc2ncc([N+](=O)[O-])c(Nc3ccc(Cl)cc3C(=O)c3ccccc3F)n2)cc(OC)c1OC [Example 36, hydrochloride]", "> 10 µM"],
  ["COc1cc(Nc2ncc([N+](=O)[O-])c(Nc3ccccc3C(=O)NC(C)(C)C)n2)cc(OC)c1OC [Example 5, hydrochloride]", "1 to 10 µM"],
  ["COc1cc(Nc2ncc([N+](=O)[O-])c(Nc3cccc4[nH]ccc34)n2)cc(OC)c1OC [Example 15, hydrochloride]", "1 to 10 µM"],
  ["COc1cc(Nc2ncc(C#N)c(Nc3ccccc3C(=O)c3ccc(C)cc3)n2)cc(OC)c1OC", "1 to 10 µM"]
]}

Supply IC50 value. Item: COc1cc(Nc2ncc([N+](=O)[O-])c(Nc3cccc4c3C(=O)CCC4)n2)cc(OC)c1OC [Example 9, hydrochloride]
1 to 10 µM

Supply IC50 value. Item: CC(=O)Nc1ccc(Nc2ncc([N+](=O)[O-])c(Nc3ccccc3C(=O)c3ccccc3)n2)cc1 [Example 7, hydrochloride]
1 to 10 µM

* * *

- System: MCF7 breast tumor cell line
- Test protocol: Methylene Blue Growth Inhibition Assay, MCF7
- Assay type: cell-based
- Assay setup: Homo sapiens, 72 h; MCF7 cells, 3 days; read-out: MeB Cell Line IC50
Where a name gives a salt, the structure may show the parent alone.
Quantity kind: IC50

{"columns": ["Compound", "Target", "Quantity kind", "Experimental value"],
 "data": [
  ["COc1cc(Nc2ncc([N+](=O)[O-])c(Nc3cccc4c3OCCO4)n2)cc(OC)c1OC [Example 19, hydrochloride]", "MCF7 breast tumor cell line", "IC50", "1000 to 10000 nM"],
  ["COc1cc(Nc2ncc([N+](=O)[O-])c(Nc3ccc(Cl)cc3C(=O)c3ccccc3F)n2)cc(OC)c1OC [Example 36, hydrochloride]", "MCF7 breast tumor cell line", "IC50", "1000 to 10000 nM"],
  ["COc1cc(Nc2ncc([N+](=O)[O-])c(Nc3cccc4c3C(=O)CCC4)n2)cc(OC)c1OC [Example 9, hydrochloride]", "MCF7 breast tumor cell line", "IC50", "1000 to 10000 nM"],
  ["COc1cc(Nc2ncc([N+](=O)[O-])c(Nc3ccccc3C(N)=O)n2)cc(OC)c1OC [Example 3, hydrochloride]", "MCF7 breast tumor cell line", "IC50", "< 1000 nM"]
]}

State the measured IC50 (MCF7 breast tumor cell line) of COc1cc(Nc2ncc([N+](=O)[O-])c(Nc3cccc4[nH]ccc34)n2)cc(OC)c1OC [Example 15, hydrochloride]
1000 to 10000 nM

State the measured IC50 (MCF7 breast tumor cell line) of COc1cc(Nc2ncc([N+](=O)[O-])c(Nc3ccccc3C(=O)NC(C)(C)C)n2)cc(OC)c1OC [Example 5, hydrochloride]
1000 to 10000 nM

State the measured IC50 (MCF7 breast tumor cell line) of CC(=O)Nc1ccc(Nc2ncc([N+](=O)[O-])c(Nc3ccccc3C(=O)c3ccccc3)n2)cc1 [Example 7, hydrochloride]
1000 to 10000 nM

* * *

- Test system: RKO colon tumor cell line
- Test protocol: Methylene Blue Growth Inhibition Assay, RKO
- Type: cell-based
- Assay setup: Homo sapiens, 72 h; RKO cells, 3 days; read-out: MeB Cell Line IC50
Where a name gives a salt, the structure may show the parent alone.
Quantity kind: IC50

{"columns": ["Compound", "IC50"],
 "data": [
  ["COc1cc(Nc2ncc([N+](=O)[O-])c(Nc3ccccc3C(=O)NC(C)(C)C)n2)cc(OC)c1OC [Example 5, hydrochloride]", "1000 to 10000 nM"],
  ["COc1cc(Nc2ncc([N+](=O)[O-])c(Nc3ccccc3C(N)=O)n2)cc(OC)c1OC [Example 3, hydrochloride]", "< 1000 nM"],
  ["COc1cc(Nc2ncc([N+](=O)[O-])c(Nc3cccc4c3OCCO4)n2)cc(OC)c1OC [Example 19, hydrochloride]", "1000 to 10000 nM"],
  ["COc1cc(Nc2ncc([N+](=O)[O-])c(Nc3cccc4[nH]ccc34)n2)cc(OC)c1OC [Example 15, hydrochloride]", "< 1000 nM"],
  ["COc1cc(Nc2ncc([N+](=O)[O-])c(Nc3ccc(Cl)cc3C(=O)c3ccccc3F)n2)cc(OC)c1OC [Example 36, hydrochloride]", "1000 to 10000 nM"]
]}

Supply IC50 value. Item: COc1cc(Nc2ncc(C#N)c(Nc3ccccc3C(=O)c3ccc(C)cc3)n2)cc(OC)c1OC [Example 39]
1000 to 10000 nM

Supply IC50 value. Item: COc1cc(Nc2ncc([N+](=O)[O-])c(Nc3cccc4c3C(=O)CCC4)n2)cc(OC)c1OC [Example 9, hydrochloride]
1000 to 10000 nM

Supply IC50 value. Item: COc1cc(Nc2ncc([N+](=O)[O-])c(Nc3ccccc3C(=O)NC3CCCCC3)n2)cc(OC)c1OC [Example 34, hydrochloride]
1000 to 10000 nM

Supply IC50 value. Item: COc1cc(Nc2ncc([N+](=O)[O-])c(Nc3ccc(O)cc3C(=O)O)n2)cc(OC)c1OC [Example 22, hydrochloride]
> 10000 nM

Supply IC50 value. Item: CC(=O)Nc1ccc(Nc2ncc([N+](=O)[O-])c(Nc3ccccc3C(=O)c3ccccc3)n2)cc1 [Example 7, hydrochloride]
1000 to 10000 nM

* * *

Reported IC50 is given for each of the following compounds.
- Target: PLK1 kinase domain (Homo sapiens, UniProt P53350)
- Construct: made in house; host or cells: baculovirus-infected T. ni insect cells
- Test protocol: Assay for inhibition of PLK1 (SPA, 33P-ATP, His-tagged PLK kinase domain)
- Assay type: biochemical
- Assay setup: 2 μM ATP, read-out: Ave pIC50 PLK Enzyme Inhibition (converted)
Counter-ions that a name gives are not always drawn.

State the measured IC50 (PLK1 kinase domain (Homo sapiens, UniProt P53350)) of COc1cc(Nc2nc(Nc3ccc(NC(C)=O)cc3)ncc2Br)cc(OC)c1OC [Example 28, hydrochloride]
> 10000 nM

State the measured IC50 (PLK1 kinase domain (Homo sapiens, UniProt P53350)) of COc1cc(Nc2ncc([N+](=O)[O-])c(Nc3cccc4c3OCCO4)n2)cc(OC)c1OC [Example 19, hydrochloride]
< 100 nM

State the measured IC50 (PLK1 kinase domain (Homo sapiens, UniProt P53350)) of CC(=O)Nc1ccc(Nc2ncc([N+](=O)[O-])c(Nc3ccccc3C(=O)OC3CCCCC3)n2)cc1 [Example 21, hydrochloride]
< 100 nM

State the measured IC50 (PLK1 kinase domain (Homo sapiens, UniProt P53350)) of COc1cc(Nc2ncc([N+](=O)[O-])c(Nc3cccc4c3C(=O)CCC4)n2)cc(OC)c1OC [Example 9, hydrochloride]
< 100 nM

This collection of values is drawn from patent US7514446B2.
